system: NCI/ADR-RES ovarian; experiment: NCI-60 one-dose screen, 48 h (100 = growth as untreated, 0 = no growth, -100 = all killed); conditions: 10 µM unless noted
About 83,000 compounds went through this panel and 20% of them were active in at least one assay; those are over-represented in the sample as a whole.
test_readout: growth (%)
Numbers only, in %.

Lab book: growth of N#CC(N)c1ccccc1 (stereo not given) noted as 108

Lab book: growth of C[C@@]12CCCc3coc(c31)C(=O)c1cc3c(cc12)C(=O)C1=C(NCCS1(=O)=O)C3=O noted as 81.5

Lab book: growth of C[C@]12CCc3sc(Nc4ccc(OC(F)(F)F)cc4)nc3C1=CC[C@@H]1[C@@H]2CC[C@]2(C)C(=O)CC[C@@H]12 noted as 81.6

Lab book: growth of COC1C(O)CC(OC2CC(Oc3cc4cc5c(c(O)c4c(O)c3C)C(=O)[C@@H](OC3CC(OC4CC(OC6CC(C)(O)C(OC(C)=O)C(C)O6)C(O)C(C)O4)C(O)C(C)O3)[C@H]([C@H](OC)C(=O)[C@@H](O)[C@@H](C)O)C5)OC(C)C2OC(C)=O)OC1C (stereo not given in full) noted as -33.9

Lab book: growth of C[C@@H]1C/C=C\C(=O)O[C@H](/C=C/C#C/C=C/C(C)(C)[C@@H](O)c2cccc(O)c2Br)[C@@H](C)/C=C/[C@H](C)C[C@H](OC(N)=O)C1 noted as 33.5

Lab book: growth of CC[C@@H](C)C(=O)O[C@H]1[C@H](O)[C@H]2[C@@H](CN3C[C@@H](C)CC[C@H]3[C@@]2(C)O)[C@@H]2C[C@]34O[C@]5(O)[C@@H](OC(=O)[C@@](C)(O)CC)CC[C@@]3(C)[C@@H]5[C@@H](OC(C)=O)[C@@H](OC(C)=O)[C@H]4[C@@]21O noted as 104

Lab book: growth of COC(=O)CCP(CCC(=O)OC)c1ccccc1 noted as 106

Lab book: growth of C=CC[PH+](c1ccccc1)c1ccccc1.C=CC[PH+](c1ccccc1)c1ccccc1.[Pt+2].[S-]c1nc2ccccc2[nH]1.[S-]c1nc2ccccc2[nH]1 noted as 88.4

Lab book: growth of O=C/C=C/c1ccco1 noted as 109

Lab book: growth of C=CC1CN2CCC1CC2C(O)c1ccnc2ccccc12 (stereo not given) noted as -15.5

Give one value of growth per listed molecule.
1. Cn1cc(C(=O)C[n+]2ccccc2)c2ccccc21
2. C[C@]12C[C@H](c3ccoc3)OC(=O)[C@H]1CC[C@@]1(C)[C@@H]2[C@H]2C=C[C@]1(O)C(=O)O2

Output:
100
106
